Tested on: U-2932
Experiment: growth inhibition by drug alone (1 - RLU/untreated control) (fraction); higher = stronger inhibition
Conditions: 10 nM; time (day): 5; 177Lu-lilotomab satetraxetan 0 ug/ml
Record Satisfied whenever growth inhibition by drug alone is at -0.09 or higher; record Not satisfied when lower.

molecule | tested on | classification
CC(C)n1c(/C=C/C(O)CC(O)CC(=O)O)c(-c2ccc(F)cc2)c2ccccc21 (configuration not stated) [Fluvastatin sodium (Lescol)] | U-2932 | Satisfied
CCC(=O)N1CCN(c2ccc(-n3c(=O)ccc4cnc5ccc(-c6cnc7ccccc7c6)cc5c43)cc2C(F)(F)F)CC1 | U-2932 | Satisfied
C[C@]12CC[C@@H]3c4ccc(O)cc4C[C@@H](CCCCCCCCC[S+]([O-])CCCC(F)(F)C(F)(F)F)[C@H]3[C@@H]1CC[C@@H]2O (some centres not stated) | U-2932 | Not satisfied
C[C@@H]1C[C@H]2[C@@H]3CCC4=CC(=O)C=C[C@]4(C)[C@@]3(F)[C@@H](O)C[C@]2(C)[C@@]1(O)C(=O)CO | U-2932 | Satisfied
C#CCN(C)CC1=Cc2ccccc2Oc2ccccc21 | U-2932 | Satisfied

# input for lookup
stdin: Assess whether reported growth inhibition by drug alone for "Cc1ccc(C(=O)Nc2ccc(CN3CCN(C)CC3)c(C(F)(F)F)c2)cc1C#Cc1cnc2cccnn12" sits at -0.09 or higher.
stdout: Not satisfied

====

Listed here: items and their measured growth inhibition by drug plus 177Lu-lilotomab satetraxetan.
Test system: RIVA
Experiment: growth inhibition by drug plus 177Lu-lilotomab satetraxetan (1 - RLU/untreated control) (fraction); higher = stronger inhibition
Details: 10 nM; time (day): 4; 177Lu-lilotomab satetraxetan 0.5 ug/ml
Counter-ions that a name gives are not always drawn.
The answer should be a number; do not append a unit.

compound | measured number
CC[C@@]1(O)C(=O)OCc2c1cc1n(c2=O)Cc2cc3c(CN(C)C)c(O)ccc3nc2-1 [Topotecan HCl] | 0.878

stdin: What growth inhibition by drug plus 177Lu-lilotomab satetraxetan value was documented for this compound, "C=CCn1c(=O)c2cnc(Nc3ccc(N4CCN(C)CC4)cc3)nc2n1-c1cccc(C(C)(C)O)n1" ?
stdout: 0.527

stdin: What growth inhibition by drug plus 177Lu-lilotomab satetraxetan value was documented for this compound, "CC(C)(C)c1cnc(CSc2cnc(NC(=O)C3CCNCC3)s2)o1" ?
stdout: 0.533

====

Tested on: U-2932
Experiment: growth inhibition by drug alone (1 - RLU/untreated control) (fraction); higher = stronger inhibition
Conditions: 10 nM; time (day): 4; 177Lu-lilotomab satetraxetan 0 ug/ml
Counter-ions that a name gives are not always drawn.
// thresholds for growth inhibition by drug alone classes: LOW = under -0.004, MID = from -0.004 up to 0.06, HIGH = 0.06 and over

These solved cases illustrate the format of a correct answer.
compound | classification
Nc1ccccc1NC(=O)c1ccc(CNC(=O)OCc2cccnc2)cc1 [Entinostat (MS-275, SNDX-275)] | MID
Cn1cc(-c2ccc3nnc(C(F)(F)c4ccc5ncccc5c4)n3n2)cn1 | LOW
Cc1ccc(NC(=O)c2ccc(CN3CC[C@H](N(C)C)C3)c(C(F)(F)F)c2)cc1Nc1nccc(-c2cncnc2)n1 [Bafetinib (INNO-406)] | HIGH
CC[C@H]1OC(=O)[C@H](C)[C@@H](O[C@H]2C[C@@](C)(OC)[C@@H](O)[C@H](C)O2)[C@H](C)[C@@H](O[C@@H]2O[C@H](C)C[C@H](N(C)C)[C@H]2O)[C@](C)(O)C[C@@H](C)CN(C)[C@H](C)[C@@H](O)[C@]1(C)O [Azithromycin (Zithromax)] | HIGH
Cn1cnc([N+](=O)[O-])c1Sc1ncnc2[nH]cnc12 [Azathioprine (Azasan, Imuran)] | MID

stdin: Form field 'band' for COC(=O)C1=C(C)NC(C)=C(C(=O)OCCCN2CCC(c3ccccc3)(c3ccccc3)CC2)[C@H]1c1cccc([N+](=O)[O-])c1 [S-(+)-Niguldipine hydrochloride]
stdout: MID

stdin: Form field 'band' for "CC(C)(C)c1cnc(CSc2cnc(NC(=O)C3CCNCC3)s2)o1"
stdout: LOW

====

Test system: RIVA
Assay: growth inhibition by drug alone (1 - RLU/untreated control) (fraction); higher = stronger inhibition
Settings: 100 nM; time (day): 5; 177Lu-lilotomab satetraxetan 0 ug/ml
Where a name gives a salt, the structure may show the parent alone.
endpoint name: growth inhibition by drug alone
The answer should be a number; do not append a unit.

Example results:
compound | growth inhibition by drug alone
COc1ncc(-c2ccc3nccc(-c4ccnnc4)c3c2)cc1NS(=O)(=O)c1ccc(F)cc1F | 0.943
CS(=O)(=O)CCNCc1ccc(-c2ccc3ncnc(Nc4ccc(OCc5cccc(F)c5)c(Cl)c4)c3c2)o1 [Lapatinib Ditosylate (Tykerb)] | -0.183
O=C(Nc1ncc([N+](=O)[O-])s1)c1ccc([N+](=O)[O-])c(Cl)c1 | -0.0824
O=C(Nc1cccnc1)N1CCC(Cc2cccc(Oc3ccc(C(F)(F)F)cn3)c2)CC1 | 0.0325

stdin: What growth inhibition by drug alone value was documented for this compound, CC[C@H](CO)Nc1nc(NCc2ccccc2)c2ncn(C(C)C)c2n1 [Roscovitine (Seliciclib, CYC202)] ?
stdout: -0.0745

stdin: What growth inhibition by drug alone value was documented for this compound, CCN[C@H]1C[C@H](C)S(=O)(=O)c2sc(S(N)(=O)=O)cc21 [Dorzolamide HCL] ?
stdout: -0.134

stdin: What growth inhibition by drug alone value was documented for this compound, "CCN1CCN(Cc2ccc(-c3cc4c(N[C@H](C)c5ccccc5)ncnc4[nH]3)cc2)CC1" ?
stdout: -0.217

stdin: What growth inhibition by drug alone value was documented for this compound, CCCC(CCC)C(=O)O [Valproic acid sodium salt (Sodium valproate)] ?
stdout: -0.00506

stdin: What growth inhibition by drug alone value was documented for this compound, "O=C1c2ccccc2-c2nc3nonc3nc21" ?
stdout: -0.554

stdin: What growth inhibition by drug alone value was documented for this compound, "O=C1C(Cl)=C(NCCN2CCOCC2)C(=O)c2ncccc21" ?
stdout: 0.12

stdin: What growth inhibition by drug alone value was documented for this compound, C#Cc1cccc(Nc2ncnc3cc(OCCOC)c(OCCOC)cc23)c1 [Erlotinib HCl] ?
stdout: 0.6

====

Test system: RIVA
Experiment: growth inhibition by drug plus 177Lu-lilotomab satetraxetan (1 - RLU/untreated control) (fraction); higher = stronger inhibition
Settings: 100 nM; time (day): 6; 177Lu-lilotomab satetraxetan 0.5 ug/ml
endpoint name: growth inhibition by drug plus 177Lu-lilotomab satetraxetan
The answer should be a number; do not append a unit.

molecule | measured number
CN1CCN(c2cccc(Nc3nc4c(-c5ccc(S(C)(=O)=O)cc5)cccn4n3)c2)CC1 | 0.401
CCc1ccc(CCOc2ccc(CC3SC(=O)NC3=O)cc2)nc1 (stereo not given) | 0.506
CC(C)n1nc(-c2ccc3oc(N)nc3c2)c2c(N)ncnc21 | 0.833

stdin: Provide value of growth inhibition by drug plus 177Lu-lilotomab satetraxetan for this record tested with RIVA: "Cn1cc(-c2ccc3nnc(C(F)(F)c4ccc5ncccc5c4)n3n2)cn1"
stdout: 0.429

stdin: Provide value of growth inhibition by drug plus 177Lu-lilotomab satetraxetan for this record tested with RIVA: "Nc1ccn([C@@H]2O[C@H](CO)[C@@H](O)[C@@H]2O)c(=O)n1"
stdout: 0.81

====

System: RIVA
Experiment: growth inhibition by drug alone (1 - RLU/untreated control) (fraction); higher = stronger inhibition
Conditions: 100 nM; time (day): 6; 177Lu-lilotomab satetraxetan 0 ug/ml
Counter-ions that a name gives are not always drawn.
endpoint name: growth inhibition by drug alone
The answer should be a number; do not append a unit.

compound | growth inhibition by drug alone
CCOc1cc2ncc(C#N)c(Nc3ccc(OCc4ccccn4)c(Cl)c3)c2cc1NC(=O)/C=C/CN(C)C [Neratinib (HKI-272)] | -0.14
Cn1cnc2c(F)c(Nc3ccc(Br)cc3Cl)c(C(=O)NOCCO)cc21 [AZD6244 (Selumetinib)] | -0.531
CCN[C@H]1C[C@H](C)S(=O)(=O)c2sc(S(N)(=O)=O)cc21 [Dorzolamide HCL] | -0.179
N#CC1(c2ccc(NC(=O)c3cccnc3NCc3ccncc3)cc2)CCCC1 [Apatinib (YN968D1)] | -0.223
CN1CC[C@H](c2c(O)cc(O)c3c(=O)cc(-c4ccccc4Cl)oc23)[C@H](O)C1 [Flavopiridol hydrochloride] | 0.385

stdin: Provide value of growth inhibition by drug alone for this record tested with RIVA: "Fc1cc(-c2cccc3ncc(-c4cnn(C5CCNCC5)c4)nc23)cc(F)c1CN1CCOCC1"
stdout: -0.341

stdin: Provide value of growth inhibition by drug alone for this record tested with RIVA: COc1cccc2c1C(=O)c1c(O)c3c(c(O)c1C2=O)C[C@@](O)(C(C)=O)C[C@@H]3O[C@H]1C[C@H](N)[C@H](O)[C@H](C)O1 [Daunorubicin HCl (Daunomycin HCl)]
stdout: 0.915

Data origin, for the record: the supplement of paper PMC6897291
